Target: Small ribosomal subunit protein uS2 (Homo sapiens)
Assay: Binding affinity to LAMR1 in human HT1080 cells assessed as maximal cell attachment to compound coated plates after 3 hrs by hemocytometer
Format: cell-based
Conditions: HT-1080
Where a SMILES comes first, the peptide text is derived from it.
parameter.measured: Activity (%)
Give the value in % but do not write % after it.

CC[C@H](C)[C@@H]1NC(=O)[C@H](Cc2ccc(O)cc2)NC(=O)CNC(=O)[C@@H]2CCCN2C(=O)[C@H](CC(=O)O)NC(=O)[C@H](CCCNC(=N)N)NC(=O)[C@H](CO)NC(=O)[C@@H](CCC(=O)O)NC1=O | 62
CC[C@H](C)[C@@H]1NC(=O)[C@H](Cc2ccc(O)cc2)NC(=O)CNC(=O)[C@H](CCCNC(=N)N)NC(=O)[C@H](CO)NC(=O)[C@@H](CO)NC1=O | 72

Exercise: Could you share which Activity value was measured for CC[C@H](C)[C@@H]1NC(=O)[C@H](Cc2ccc(O)cc2)NC(=O)CNC(=O)[C@@H]2CCCN2C(=O)[C@H](CC(=O)O)NC(=O)[C@H](CCCNC(=N)N)NC(=O)[C@H](CO)NC(=O)[C@@H](CO)NC1=O ?
Solution: 75

Exercise: Could you share which Activity value was measured for CC[C@H](C)[C@@H]1NC(=O)[C@H](Cc2ccc(O)cc2)NC(=O)[C@H]2CCCN2C(=O)[C@H](CCCNC(=N)N)NC(=O)[C@H](CO)NC(=O)[C@@H](CO)NC1=O ?
Solution: 76

Exercise: Could you share which Activity value was measured for CC[C@H](C)[C@@H]1NC(=O)[C@H](Cc2ccc(O)cc2)NC(=O)[C@H](CC(N)=O)NC(=O)[C@H](CCCNC(=N)N)NC(=O)[C@H](CO)NC(=O)CNC1=O (cyclo(GSRNYI)) ?
Solution: 56

----------
Target: Small ribosomal subunit protein uS2 (Homo sapiens) (UniProt P08865)
Assay: Binding affinity to LAMR1 in human HeLa cells assessed as maximal cell attachment to compound coated plates after 3 hrs by hemocytometer
Assay type: cell-based
Where a SMILES comes first, the peptide text is derived from it.
Items are presented alongside their recorded Activity.
Give the value; after it, write the unit.

Would you please look over these solved cases?
CC[C@H](C)[C@@H]1NC(=O)[C@H](Cc2ccc(O)cc2)NC(=O)[C@H](CC(N)=O)NC(=O)[C@H](CCCNC(=N)N)NC(=O)[C@H](CO)NC(=O)[C@@H](CCCCN)NC1=O | 29%
CC[C@H](C)[C@H](NC(=O)[C@@H](N)Cc1ccc(O)cc1)C(=O)NCC(=O)N[C@@H](CO)C(=O)N[C@@H](CCCNC(=N)N)C(=O)N[C@H](C)C(=O)N[C@H](CCSC)C(=O)O | 31%

Exercise: Could you share which Activity value was measured for CC[C@H](C)[C@@H]1NC(=O)[C@H](Cc2ccc(O)cc2)NC(=O)[C@H](CC(N)=O)NC(=O)[C@H](CCCNC(=N)N)NC(=O)[C@H](CO)NC(=O)CNC1=O (cyclo(GSRNYI)) ?
Solution: 32%

----------
Target: Small ribosomal subunit protein uS2 (Homo sapiens)
Assay: Binding affinity to LAMR1 in human HT1080 cells assessed as maximal cell attachment to compound coated plates after 3 hrs by hemocytometer
Type: cell-based
Settings: HT-1080
Where a SMILES comes first, the peptide text is derived from it.
parameter.measured: Activity
Give the value; after it, write the unit.

Would you please look over these solved cases?
CC[C@H](C)[C@H](NC(=O)[C@@H](N)Cc1ccc(O)cc1)C(=O)NCC(=O)N[C@@H](CO)C(=O)N[C@@H](CCCNC(=N)N)C(=O)N[C@H](C)C(=O)N[C@H](CCSC)C(=O)O | 53%
CC[C@H](C)[C@@H]1NC(=O)[C@H](Cc2ccc(O)cc2)NC(=O)CNC(=O)[C@@H]2CCCN2C(=O)[C@H](CC(=O)O)NC(=O)[C@H](CCCNC(=N)N)NC(=O)[C@H](CO)NC(=O)CNC1=O (cyclo(DPGYIGSR)) | 67%
CC[C@H](C)[C@@H]1NC(=O)[C@H](Cc2ccc(O)cc2)NC(=O)[C@H](CC(N)=O)NC(=O)[C@H](CCCNC(=N)N)NC(=O)[C@H](CO)NC(=O)[C@@H](CO)NC(=O)[C@H]([C@@H](C)CC)NC(=O)[C@H](Cc2ccc(O)cc2)NC(=O)[C@H](CC(N)=O)NC(=O)[C@H](CCCNC(=N)N)NC(=O)[C@H](CO)NC(=O)[C@@H](CO)NC1=O | 48%

Next, consider the following compound.
Exercise: Could you share which Activity value was measured for CC[C@H](C)[C@@H]1NC(=O)[C@H](Cc2ccc(O)cc2)NC(=O)[C@H](CC(N)=O)NC(=O)[C@H](CCCNC(=N)N)NC(=O)[C@H](CO)NC(=O)[C@@H](CCC(=O)O)NC1=O ?
Solution: 76%
